ASSAY: acute toxicity (LD50) by intravenous and oral administration
ASSAY SETUP: rat, in vivo, po, male rats; p.o.; fasted 12 hours; read-out: LD50 p.o.
Reported values of LD50 for individual entries
Answer format: number, then unit.

Completed entries (count: 3):
CCOC(=O)Nc1ccc(OCC(O)CNCCOc2ccc(C(N)=O)cc2)c2c1NC(=O)CC2 (stereo not drawn) [compound 4]: 1210 mg/kg
COc1ccc(OCCNCC(O)COc2ccc(NC(N)=O)c3c2CCC(=O)N3)cc1 (stereo not drawn) [compound 3]: 1340 mg/kg
Cc1ccc(S(=O)(=O)Nc2ccc(OCC(O)CNCCOc3ccc(C(N)=O)cc3)c3c2NC(=O)CC3)cc1 (stereo not drawn) [compound 7]: 1120 mg/kg

Note to self: LD50 recorded for COc1ccc(CCNCC(O)COc2c(NC(C)=O)ccc3c2CCC(=O)N3)cc1OC (stereo not drawn) [compound 6] was 1380 mg/kg

Note to self: LD50 recorded for COc1ccccc1N1CCN(CC(O)COc2ccc(NC(C)=O)c3c2CCC(=O)N3)CC1 (stereo not drawn) [compound 10] was 1170 mg/kg

Note to self: LD50 recorded for COc1ccc(CCNCC(O)COc2ccc(NC(C)=O)c3c2CCC(=O)N3)cc1OC (stereo not drawn) [compound 2] was 1350 mg/kg
